# Test system: SN12C (Kidney Carcinoma)
# PROTOCOL SUMMARY: combination Emax (second highest fraction inhibited in the dose matrix, 72 h); higher = more inhibition; extreme values may be limits of the assay
READOUT NAME: combination Emax
Keep it simple and answer with nothing but the number.

API: value(readout=combination Emax, system=SN12C (Kidney Carcinoma)) for record Cc1cc2ncnn2cc1Nc1ncc2c(n1)n(C1CCOCC1)c(=O)n2C [AZD7648] + CCN(CCO)CCCOc1ccc2c(Nc3cc(CC(=O)Nc4cccc(F)c4)[nH]n3)ncnc2c1 [AZD2811] (first compound max 10 µM, 7x7, partner max 1 µM)
0.262

Identify the measured combination Emax of CC1(C)CCC(CN2CCN(c3ccc(C(=O)NS(=O)(=O)c4ccc(NCC5CCOCC5)c([N+](=O)[O-])c4)c(Oc4cnc5[nH]ccc5c4)c3)CC2)=C(c2ccc(Cl)cc2)C1 [Venetoclax] + CS(=O)(=O)CCNCc1ccc(-c2ccc3ncnc(Nc4ccc(OCc5cccc(F)c5)c(Cl)c4)c3c2)o1 [Lapatinib] (first compound max 1 µM, 7x7, partner max 10 µM) for SN12C (Kidney Carcinoma).
0.222

Provide the documented combination Emax with SN12C (Kidney Carcinoma) as the system for NC1(C(=O)N[C@@H](CCO)c2ccc(Cl)cc2)CCN(c2ncnc3[nH]ccc23)CC1 [Capivasertib] + C[C@@H]1COCCN1C2=NC(=NC(=C2)C3(CC3)[S@](=N)(=O)C)C4=C5C=CNC5=NC=C4 [AZD6738] (first compound max 10 µM, 7x7, partner max 10 µM)
0.261

Recorded combination Emax for NC1(C(=O)N[C@@H](CCO)c2ccc(Cl)cc2)CCN(c2ncnc3[nH]ccc23)CC1 [Capivasertib] + CCN(CCO)CCCOc1ccc2c(Nc3cc(CC(=O)Nc4cccc(F)c4)[nH]n3)ncnc2c1 [AZD2811] (first compound max 10 µM, 7x7, partner max 1 µM) with SN12C (Kidney Carcinoma), please?
0.27

Request: combination Emax, test system SN12C (Kidney Carcinoma), entry C=CCn1c(=O)c2cnc(Nc3ccc(N4CCN(C)CC4)cc3)nc2n1-c1cccc(C(C)(C)O)n1 [AZD1775] + C1CN(CCC1(C(=O)N[C@@H](CCO)C2=CC=C(C=C2)Cl)N)C3=NC=NC4=C3C=CN4 [Capivasertib] (first compound max 3 µM, partner max 3 µM)
0.359

What is its combination Emax for SN12C (Kidney Carcinoma)? Entry: Cc1cc2ncnn2cc1Nc1ncc2c(n1)n(C1CCOCC1)c(=O)n2C [AZD7648] + COc1cc([C@@H]2c3cc4c(cc3[C@@H](O[C@@H]3O[C@@H]5CO[C@@H](C)O[C@H]5[C@H](O)[C@H]3O)[C@H]3COC(=O)[C@H]23)OCO4)cc(OC)c1O [Etoposide] (first compound max 10 µM, 7x7, partner max 10 µM)
0.641

Test system SN12C (Kidney Carcinoma); read-out combination Emax; what value for N#Cc1cnc(Nc2cc(NC[C@H]3CNCCO3)c(C(F)(F)F)cn2)cn1 [SRA737] + CCc1c2c(nc3ccc(O)cc13)-c1cc3c(c(=O)n1C2)COC(=O)[C@]3(O)CC [SN-38] (first compound max 10 µM, 7x7, partner max 0.3 µM) ?
0.627

Source of measurements: the supplement of paper PMC11061612
